Overview of reported pIC50 across a group of compounds:
Tested on: MV-4-11 cells
Assay: Inhibition of MV-4-11 cell proliferation (MTS, 7 days)
Assay type: cell-based
Settings: Homo sapiens, MV4-11, 168 h, 7 days, MTS, Table 3, read-out: MV-4-11 Cells Inhibition Activity IC50
pIC50: −log10 of the molar value.

Ask | Reported pIC50, compound CC(C)(C)C(=O)OCN1C(=O)CCC(N2C(=O)c3cccc(NCc4cnc(-c5ccc(Cl)cc5)o4)c3C2=O)C1=O (stereo not drawn) [Example 40] : ____
Reply | > 6.00

More entries:
Ask | Reported pIC50, compound O=C1CCC(N2C(=O)c3cccc(NCc4cnc(-c5cccc(OC6COC6)c5)o4)c3C2=O)C(=O)N1 (stereo not drawn) [Example 100] : ____
Reply | 4.70 to 6.00

Ask | Reported pIC50, compound O=C1CCC(N2C(=O)c3cccc(NCc4cnc(-c5cccc(OC6CC6)c5)o4)c3C2=O)C(=O)N1 (stereo not drawn) [Example 96] : ____
Reply | > 6.00

Ask | Reported pIC50, compound O=C1CCC(N2C(=O)c3cccc(NCc4cnc(-c5ccccc5OC(F)(F)F)o4)c3C2=O)C(=O)N1 (stereo not drawn) [Example 56] : ____
Reply | 4.70 to 6.00

Ask | Reported pIC50, compound N#Cc1ccc(CN2CCC(c3ncc(CNc4cccc5c4C(=O)N(C4CCC(=O)NC4=O)C5=O)o3)CC2)c(F)c1 (stereo not drawn) [Example 13] : ____
Reply | 4.70 to 6.00
